# PROCEDURE_SUMMARY: Biodistribution in HEK293-hsst3+ tumor-bearing mice
# Type: in vivo
# CONDITION_NOTES: mouse, femur, iv, 10 pmol, total radioactivity; HEK293-hsst3+ tumor SCID mice, 4 h pi; mean ± SD; read-out: Femur uptake
EXPERIMENTAL_READOUT: tissue uptake at 4 h (%ID/g)
Enter your answer as a number in %ID/g; do not include the unit.

Find the recorded tissue uptake at 4 h belonging to C[C@H](NC(=O)CN1CCN(CC(=O)O)CCN(CC(=O)O)CCN(CC(=O)O)CC1)C(=O)NCC(=O)N[C@H]1CSSC[C@@H](C(=O)O)NC(=O)[C@H](CO)NC(=O)[C@H]([C@@H](C)O)NC(=O)[C@H](Cc2ccccc2)NC(=O)[C@H]([C@@H](C)O)NC(=O)[C@H](CCCCN)NC(=O)[C@@H](Cc2c[nH]c3ccccc23)NC(=O)[C@H](Cc2ccccc2)NC(=O)[C@H](Cc2ccccc2)NC(=O)[C@H](CC(N)=O)NC(=O)[C@H](CCCCN)NC1=O [[^111In]AT2S, metal not drawn] and report it. 0.23

* * *

# PROCEDURE_SUMMARY: Biodistribution in HEK293-hsst2A+ tumor-bearing mice
# Type: in vivo
# CONDITION_NOTES: mouse, heart, iv, total radioactivity; HEK293-hsst2A+ tumor SCID mice, 4 h pi + co-injection of 35 nmol DP2; mean ± SD; read-out: Heart uptake, blocked
EXPERIMENTAL_READOUT: tissue uptake at 4 h (%ID/g)
Enter your answer as a number in %ID/g; do not include the unit.

Find the recorded tissue uptake at 4 h belonging to C[C@H](NC(=O)CN1CCN(CC(=O)O)CCN(CC(=O)O)CCN(CC(=O)O)CC1)C(=O)NCC(=O)N[C@H]1CSSC[C@@H](C(=O)O)NC(=O)[C@H](CO)NC(=O)[C@H]([C@@H](C)O)NC(=O)[C@H](Cc2ccccc2)NC(=O)[C@H]([C@@H](C)O)NC(=O)[C@H](CCCCN)NC(=O)[C@@H](Cc2c[nH]c3ccccc23)NC(=O)[C@H](Cc2ccccc2)NC(=O)[C@H](Cc2ccccc2)NC(=O)[C@H](CC(N)=O)NC(=O)[C@H](CCCCN)NC1=O [[^111In]AT2S, metal not drawn] and report it. 0.38

* * *

# PROCEDURE_SUMMARY: Biodistribution in HEK293-hsst2A+ tumor-bearing mice
# Format: in vivo
# CONDITION_NOTES: mouse, liver, iv, 10 pmol, total radioactivity; HEK293-hsst2A+ tumor SCID mice, 4 h pi; mean ± SD; read-out: Liver uptake
EXPERIMENTAL_READOUT: tissue uptake at 4 h (%ID/g)
Enter your answer as a number in %ID/g; do not include the unit.

Find the recorded tissue uptake at 4 h belonging to C[C@H](NC(=O)CN1CCN(CC(=O)O)CCN(CC(=O)O)CCN(CC(=O)O)CC1)C(=O)NCC(=O)N[C@H]1CSSC[C@@H](C(=O)O)NC(=O)[C@H](CO)NC(=O)[C@H]([C@@H](C)O)NC(=O)[C@H](Cc2ccccc2)NC(=O)[C@H]([C@@H](C)O)NC(=O)[C@H](CCCCN)NC(=O)[C@@H](Cc2c[nH]c3ccccc23)NC(=O)[C@H](Cc2ccccc2)NC(=O)[C@H](Cc2ccccc2)NC(=O)[C@H](CC(N)=O)NC(=O)[C@H](CCCCN)NC1=O [[^111In]AT2S, metal not drawn] and report it. 1.31
